These data points were gathered from PubChem BioAssay (NCI).

tested on: M14 melanoma; experiment: NCI-60 one-dose screen, 48 h; conditions: 10 µM unless noted
The panel holds about 83,000 compounds, 20% with a hit somewhere; the sample as a whole holds those more often. Activity calls are given as the source filed them. The calls were made as follows: active = growth percent below 10; inactive = the rest.
Parameter call: string, one of active, inactive

Worked examples, 6 compounds total:
[[record]]
compound = "CCOc1ccc(NC(=O)c2ccoc2COc2ccccc2)cc1"
category_label = "inactive"

[[record]]
compound = "N=c1ccc2nc3c(cc(N)c4ccccc43)oc-2c1"
category_label = "active"

[[record]]
compound = "CCc1ccc(-c2ccc(Nc3ccccc3)nn2)cc1S(N)(=O)=O"
category_label = "inactive"

[[record]]
compound = "Cc1oc(-c2ccccc2Cl)cc1C(=O)Nc1ccc(S(N)(=O)=O)cc1"
category_label = "inactive"

[[record]]
compound = "C[C@@H]1CCCCCCCCC[C@H](O)C(=O)C[C@@H](SC[C@@H](O)C(=O)O)C(=O)O1"
category_label = "inactive"

[[record]]
compound = "CCC(CC)C(=O)OC(C)COc1ccc(C(C)(C)C)cc1 (stereo not given)"
category_label = "inactive"


Exercise: Returns: the outcome recorded for `COc1cc2ncnc(Nc3ccc(OCc4cccc(F)c4)c(Cl)c3)c2cc1NC(=O)C1CCCC1` in this assay.
Key: inactive

Exercise: Please share the test call associated with `COc1ccc(-c2nc3ncccn3c2-c2nc3ccc(Br)cc3[nH]2)cc1` .
Key: inactive

Exercise: Tell me the recorded outcome of this test for `C[C@@H](Oc1ccc(C(=O)NS(=O)(=O)C(C)(C)C)cc1C(F)(F)F)c1ccc(Oc2ccccc2)cn1` .
Key: inactive

Exercise: Hi, sorry to bother you, what did the test record for `CC(=O)c1c(C)[nH]c(-c2nc3ccc(N4CCN(C)CC4)cc3[nH]2)c1-c1ccc(N(C)C)cc1` ?
Key: inactive
